Hello, the source for this data is patent US9163020B2, in case you need it.

TEST: in vivo
CONDITIONS: BALB/c, mouse, po, 100 mg/kg, AUC0-∞, Plasma

MOLECULE: COc1ncnc(Cn2cc(C(=O)NCCF)c3ncccc32)c1C [Compound 3]
AUC(0-inf) / µM·h: 573

* * *

Cmax for assorted molecules
TEST: in vivo
CONDITIONS: BALB/c, mouse, po, 30 mg/kg
ENDPOINT: Cmax

MOL SMILES: COc1ncnc(Cn2cc(C(=O)NCC3CC3)c3ncccc32)c1C
RESULT: 17.4 µM
--
MOL SMILES: COc1ncnc(Cn2cc(C(=O)NCCF)c3ncccc32)c1C
RESULT: 32.8 µM

* * *

TEST: in vivo
CONDITIONS: BALB/c, mouse, po, 50 mg/kg

MOLECULE: COc1ncnc(Cn2cc(C(=O)NCCO)c3ncc(C)cc32)c1C [Compound 17]
Cmax (µM): 74.8
